Consider the following variants; for each one, report its protein stability index.
B1: RSAD1 (parent)
chain: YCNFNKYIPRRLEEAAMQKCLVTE

variants of: B1; assay: protein stability index of a GFP-peptide fusion (GPS, HEK-293T) (PSI 1-6); higher = more stable; conditions: c terminus: a fixed tail appended;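 also: lentivirally expressed fusions sorted by FACS into six bins by GFP to DsRed ratio, PSI derived from sequencing read proportions per bin multiplied by bin number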
Respond using a number only.

Inquiry: Would you kindly share the measured protein stability index for YCNFNKYIPRRLEEAAMQYCLVTE [K19Y] ?
Reply text: 2.31

Inquiry: Entry YCNMNKYIPRRLEEAAMQKCLVTE [F4M] : reported protein stability index = ?
Reply text: 2.35

Inquiry: Look up protein stability index for this variant: YCNFNKIIPRRLEEAAMQKCLVTE [Y7I]
Reply text: 2.02

Inquiry: Which value of protein stability index has been reported for YCNFNGYIPRRLEEAAMQKCLVTE [K6G] in the records?
Reply text: 3.22

Inquiry: Tell me the measured protein stability index of YCNFNKYIPRRLEEAAMQKCEVTE [L21E] , please.
Reply text: 2.41

Inquiry: Which protein stability index reading was recorded for the variant YCNFNKYIPRRLEEAAMQKCLVTW [E24W] ?
Reply text: 2.13

Inquiry: Give the measured protein stability index of YCNKNKYIPRRLEEAAMQKCLVTE [F4K] .
Reply text: 2.26

Inquiry: Would you kindly share the measured protein stability index for YCNFNKYIHRRLEEAAMQKCLVTE [P9H] ?
Reply text: 2.14

Inquiry: Can you share its protein stability index? I mean this variant: YCNFNKAIPRRLEEAAMQKCLVTE [Y7A]
Reply text: 2.11

Inquiry: Which protein stability index is reported for this variant? YCNFNKYIPRRLEEAAMQKCLVTY [E24Y]
Reply text: 2.16

Inquiry: Which protein stability index is listed for YCNFNKYIPRCLEEAAMQKCLVTE [R11C] ?
Reply text: 2.17

Inquiry: Recorded protein stability index of YCNFNKYIPRFLEEAAMQKCLVTE [R11F] , please.
Reply text: 3.01

Inquiry: For the variant shown here, YCHFNKYIPRRLEEAAMQKCLVTE [N3H] , give the reported protein stability index.
Reply text: 2.74

Inquiry: Please report the recorded protein stability index for YCNFNMYIPRRLEEAAMQKCLVTE [K6M] .
Reply text: 3.03

Data origin, for the record: the supplement of paper PMC10567573
